# Test system: OVCAR-8
# MEASUREMENT DESCRIPTION: NCI60 five-dose screen, Ovarian Cancer
# Type: cell-based
# CONDITION SET: Homo sapiens; OVCAR-8, Ovarian Cancer; five-dose screen; read-out: GI50
PARAMETER: GI50 (µM)
Record the value in µM, omitting the unit from your answer.

>  <COMPOUND>
CC[C@]12C=CCN3CC[C@@]4(c5ccc(OC)cc5N(C)[C@H]4[C@@](O)(C(=O)OC)[C@@H]1OC(=O)CCCN1CCN(Cc4ccc(F)cc4)CC1)[C@@H]32

>  <GI50 / µM>
14.5

$$$$
>  <COMPOUND>
CC[C@]12C=CCN3CC[C@@]4(c5ccc(OC)cc5N(C)[C@H]4[C@@](O)(C(=O)OC)[C@@H]1OC(=O)CCC(=O)N1CCN(c4ccc(C(F)(F)F)cc4)CC1)[C@@H]32

>  <GI50 / µM>
3.72

$$$$
>  <COMPOUND>
CCC12C=CCN3CCC4(c5cc(NC(=O)CN6CCN(c7ccc(C(F)(F)F)cc7)CC6)c(OC)cc5N(C)C4C(O)(C(=O)OC)C1OC(C)=O)C32 (centres unmarked)

>  <GI50 / µM>
8.51

$$$$
>  <COMPOUND>
CC[C@]12C=CCN3CC[C@@]4(c5ccc(OC)cc5N(C)[C@H]4[C@@](O)(C(=O)OC)[C@@H]1OC(=O)CCC(=O)N1CCN(C(c4ccc(F)cc4)c4ccc(F)cc4)CC1)[C@@H]32

>  <GI50 / µM>
3.18

$$$$

# ---- query compound ----
Record CC[C@]12C=CCN3CC[C@@]4(c5ccc(OC)cc5N(C)[C@H]4[C@@](O)(C(=O)OC)[C@@H]1OC(=O)CCCN1CCN(c4ccc(C(F)(F)F)cc4)CC1)[C@@H]32 / OVCAR-8, GI50 recorded as 3.02
